assay: Ocular tissue concentrations (aqueous humor, vitreous humor, iris, retina, choroid, cornea) after topical ocular, subcutaneous and intravitreal administration; type: in vivo, New Zealand White rabbits; conditions: New Zealand White, rabbit, aqueous humor, subcutaneous, 5 mg/kg, Group 2 subcutaneous 5 mg/kg; 1.0 hr; read-out: aqueous humor Average Conc.
Structures can show the parent of a compound that is named as a salt.
quantity name: concentration at 1 h (ng/g)

> print(dat)
                                   compound  measured.result
1  COC(=O)N[C@@H](Cc1ccccc1)C(=O)N[C@@H](Cc1ccc(NS(=O)(=O)O)cc1)c1csc(-c2cccs2)n1 [Compound 1 sodium salt]              3.3
